B1: TPR 5TU (parent)
chain: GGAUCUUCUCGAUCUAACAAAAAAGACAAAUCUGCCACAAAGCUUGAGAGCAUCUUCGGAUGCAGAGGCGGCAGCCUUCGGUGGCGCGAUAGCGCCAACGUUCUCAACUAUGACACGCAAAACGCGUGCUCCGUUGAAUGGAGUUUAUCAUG

Variants of: B1
Assay: polymerase ribozyme fitness, log enrichment relative to wild type (log ratio); higher = more active; in vitro selection for triplet polymerase activity
Variants at the floor of the assay were thinned out.
Listed variants paired with reported polymerase ribozyme fitness (log ratio)

mutation_key | comparison_sign | polymerase ribozyme fitness (log ratio)
G58C C85U A89G G136A | = | -3.96
U15A A47G U56A C57U G124C C149U | = | -2.48
A28G A40G G50A A52G G65U C96U | = | -3.77
A24G A29G G46U | ≤ | -4.2
U56A A110C | = | -3.84
A3U C10U U56A C96U C116U G143A | = | -3.56
A16U A17U A26U C27G A49U C54A A66U C85A C116G | = | -3.74
U6C C10G | = | -3.97
A19U C85G | = | -2.18
U78A A91U | ≤ | -4.2
G74A A89C G94U U109G G117U | ≤ | -4.2
G84A U134C | = | -0.573
A17G A29C A107U U135G | ≤ | -4.2
A91C U109G G140U | ≤ | -4.2
A39U G117U | = | -1.04
G83C U109A A115C G140C | ≤ | -4.2
G48U | = | 0.247
A49C G143A | = | -4.14
A30G A41U U135A A137U | ≤ | -4.2
A28C U56A C57A G68A C76A G88U G94A A138C | ≤ | -4.2
G34C | = | -1.49
G59U C99U C132U | = | -1.59
C96U A119C G141A | = | 0.872
C57U C95G U127C U139G A142G | = | -4.04
C38U C93G C125A | = | -3.39
G42A G74C G83C A107U G112C | ≤ | -4.2
U15G C57A G86U A122G | = | -1.4
U61A G94A | = | -2.08
C63U U139G | = | 0.261
U9A A19C A41C C57U C96U | ≤ | -4.2
C87A G141A | = | -3.89
A3G G50C A120G C129A | ≤ | -4.2
A20U A97U | = | -2.04
A21U A26C G141A | = | -3.34
A73G C95U | = | -0.166
A64C G71A A107G G141C | ≤ | -4.2
U56A C96U | = | -0.499
A3C C8G C76U C87A A106U | ≤ | -4.2
A26U A49U G59U | ≤ | -4.2
A3U C57U | = | 0.223
C85U G88A A98U | = | -3.79
A21C C85U A138U | ≤ | -4.2
A30U G83U G141U | = | -3.89
A60U C85U U148C | = | -3.17
C38A C43A U55A C87U G117A | ≤ | -4.2
C32U G42U C79G C129A A138G U146C | ≤ | -4.2
G11A A24G A60U U78C G92A G100A | ≤ | -4.2
A16G U33G U90G C114U G117U A138C A150G | ≤ | -4.2
A49U G62C C123U | = | -2.38
A16G A17G C57U A64C A91U C95U C118G G124A G126A G133C | ≤ | -4.2
U55A G80A C85A | = | -1.39
G92U C95A A115G A147C | ≤ | -4.2
A22C U53A U56A A73G | = | -1.97
A24C C32G C43G C87G U104G A115C | ≤ | -4.2
C43U A47U G59A C75A C93U G126C G133A | ≤ | -4.2
A30C C35U C54U C85U A121U | ≤ | -4.2
C114U A119U | = | -1.73
C14G G88C C125G | = | -4.08
U4C G86U | = | -1.9
C10U C51G A52U C87A C123U G141C | ≤ | -4.2
A39G G83A U101A | ≤ | -4.2
C43U C57G G70A A89G C93U | ≤ | -4.2
C5A U9G C93G C103A C108G A113G A137G | ≤ | -4.2
A20G A26U A39C G86C A150C | ≤ | -4.2
A12C A20U U53C A89G | = | -3.96
C38U G48C G92A A142C G143U | ≤ | -4.2
A30G C54G G68A C95G A121C | ≤ | -4.2
U15G A47C G83C | = | -1.85
G50C G117A | = | -2.37
U55G C87A C118U U130G | ≤ | -4.2
G50A A150U | = | -1.41
G46U C69G | = | -0.758
U56A G70C | = | -3.24
C10G A29C C54A U55G G88A G92U G124U | ≤ | -4.2
C75U G136C | = | -2.6
A16C A20U | = | -2.36
U31G G59U C69A U134G G136U | = | -3.84
C14U G92C A150U | = | -4.2
U13G G58A C95U C96G | = | -4.19
A21C A24U C38G C93U G117A | = | -2.15
U9A C96U A110C | ≤ | -4.2
G46A A47G G48A G50C G136A | ≤ | -4.2
G25U A47G A60G C75A A91U A122U G141C A142G | ≤ | -4.2
U78A C93A G124U | ≤ | -4.2
G126A C129G | = | -3.97
C10U G70U C87A C118U | ≤ | -4.2
U31G G65U | ≤ | -4.2
A16G C87U | = | -1.85
C14A U44A G81A C85A U102G | ≤ | -4.2
C51U A73G C96G C123U | = | -0.999
U4A C18U A64C G68A C79G | ≤ | -4.2

Entry source: the RNAGym collection of RNA variant scans (doi:10.1073/pnas.2313332121)
